Target: Dα5 + Dα7 nAChR (Drosophila melanogaster, UniProt Q8T7V5+Q9VWI9)
Construct: gene nAChRalpha5; intact subunits co-injected as cRNA in Xenopus oocytes with C. elegans RIC-3; pairwise heteromer not proven (may be homomers); stoichiometry unknown
Sequence (Q8T7V5 1-807): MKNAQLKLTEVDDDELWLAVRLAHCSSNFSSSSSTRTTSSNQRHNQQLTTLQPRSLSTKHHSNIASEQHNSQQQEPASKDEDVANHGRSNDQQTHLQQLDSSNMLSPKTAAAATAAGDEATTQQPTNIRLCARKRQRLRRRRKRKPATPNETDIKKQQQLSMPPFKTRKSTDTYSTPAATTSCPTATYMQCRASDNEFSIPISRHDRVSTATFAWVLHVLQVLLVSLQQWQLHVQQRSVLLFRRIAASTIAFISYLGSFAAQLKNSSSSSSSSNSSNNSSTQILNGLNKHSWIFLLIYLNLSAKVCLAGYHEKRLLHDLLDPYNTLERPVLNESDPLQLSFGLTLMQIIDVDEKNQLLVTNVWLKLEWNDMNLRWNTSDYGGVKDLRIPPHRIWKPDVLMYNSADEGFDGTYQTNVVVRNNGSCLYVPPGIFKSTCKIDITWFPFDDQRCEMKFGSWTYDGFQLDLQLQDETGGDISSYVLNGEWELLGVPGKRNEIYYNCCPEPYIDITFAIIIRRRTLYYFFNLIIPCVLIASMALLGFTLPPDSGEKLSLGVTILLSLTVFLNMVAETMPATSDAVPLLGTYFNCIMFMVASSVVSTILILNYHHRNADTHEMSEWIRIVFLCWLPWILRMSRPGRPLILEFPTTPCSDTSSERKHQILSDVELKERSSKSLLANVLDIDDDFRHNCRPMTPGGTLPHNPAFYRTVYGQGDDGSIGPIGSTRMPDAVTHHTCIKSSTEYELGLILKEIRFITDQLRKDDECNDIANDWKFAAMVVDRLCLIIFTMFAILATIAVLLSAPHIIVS
Sequence (Q9VWI9 59-560): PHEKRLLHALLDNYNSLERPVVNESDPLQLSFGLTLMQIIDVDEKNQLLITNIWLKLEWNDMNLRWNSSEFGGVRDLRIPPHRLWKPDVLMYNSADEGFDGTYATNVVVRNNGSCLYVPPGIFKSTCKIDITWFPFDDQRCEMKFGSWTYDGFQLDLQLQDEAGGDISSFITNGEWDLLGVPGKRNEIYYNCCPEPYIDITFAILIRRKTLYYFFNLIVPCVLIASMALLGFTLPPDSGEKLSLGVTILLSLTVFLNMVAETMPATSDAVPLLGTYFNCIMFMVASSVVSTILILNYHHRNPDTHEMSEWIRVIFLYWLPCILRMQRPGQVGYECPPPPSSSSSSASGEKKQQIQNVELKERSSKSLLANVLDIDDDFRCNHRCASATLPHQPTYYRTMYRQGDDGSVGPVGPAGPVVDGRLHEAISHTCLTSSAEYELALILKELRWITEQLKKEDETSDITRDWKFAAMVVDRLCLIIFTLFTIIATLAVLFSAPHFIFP
Assay: two-electrode voltage clamp, Xenopus oocytes
Assay type: cell-based
Details: read-out: EC 50(μM or nM)*
attribute_measured: EC50 (µM)
Report the figure in µM without appending any unit label.

# input For the molecule CC(=O)OCC[N+](C)(C)C , what EC50 is on record?
# output 1.6
